All values here come from patent US20240336654A1.

Give Hemolysis at 0.2 g/L for every item shown.
Test system: human red blood cells (hRBC)
Assay type: cell-based
CONDITION_DETAILS: red cells of human, 1 h, 200 μg/mL
Protocol: Lyophilized peptides were weighed on a Microbalance (Mettler MT5) and dissolved in sterile water to a final concentration of 1 mg/mL. Stock solutions were kept at +4° C., light protected. […] A value of 0% and 100% cell lyses, respectively, was determined by incubation of hRBC in the presence of PBS and 2.5% Triton X-100 in H2O, respectively. The samples were centrifuged, the supernatants were 8-fold diluted in PBS buffer and the optical densities (OD) were measured at 540 nm. […]
Where a SMILES comes first, the peptide text is derived from it. Bridges are numbered along the chain shown (N, C = ends). [ ]: non-standard residue; d: D form. Hyp = O=C(O)[C@@H]1C[C@@H](O)CN1; Pen = CC(C)(S)[C@H](N)C(=O)O; dDab = NCC[C@@H](N)C(=O)O; Dab = NCC[C@H](N)C(=O)O

Query string: Hemolysis at 0.2 g/L for CC[C@H](C)[C@H](NC(=O)[C@@H]1C[C@@H](O)CN1C(=O)[C@@H](N)C(C)C)C(=O)N[C@@H]1C(=O)N[C@@H](Cc2ccc(O)cc2)C(=O)N[C@@H](CO)C(=O)N[C@@H](CC(N)=O)C(=O)N[C@@H](CCCNC(=N)N)C(=O)N[C@@H](CCN)C(=O)N[C@@H]([C@@H](C)O)C(=O)N[C@H](CCN)C(=O)N[C@@H](C)C(=O)N[C@@H](CCN)C(=O)N[C@@H](CCN)C(=O)N[C@H](C(=O)N[C@@H](Cc2ccc(O)cc2)C(=O)O)CSSC1(C)C [Example 39] (H-V[Hyp]I[Pen]YSNR[Dab]T[dDab]A[Dab][Dab]CY-OH; disulfide 4-15) ?
Result string: <1%

Query string: # Hemolysis at 0.2 g/L lookup, item CC[C@H](C)[C@H](NC(=O)[C@@H]1C[C@@H](O)CN1C(=O)[C@@H](N)C(C)C)C(=O)N[C@@H]1C(=O)N[C@@H](Cc2ccc(O)cc2)C(=O)N[C@@H](CO)C(=O)N[C@@H](CC(N)=O)C(=O)N[C@@H](CCCNC(=N)N)C(=O)N[C@@H](CCN)C(=O)N[C@@H](CO)C(=O)N[C@H](CCN)C(=O)N[C@@H](CCCCN)C(=O)N[C@@H](CCN)C(=O)N[C@@H](CCN)C(=O)N[C@H](C(=O)N[C@@H](Cc2ccc(O)cc2)C(=O)O)CSSC1(C)C [Example 33] (H-V[Hyp]I[Pen]YSNR[Dab]S[dDab]K[Dab][Dab]CY-OH; disulfide 4-15)
Result string: <1%

* * *

Tested on: human red blood cells (hRBC)
Type: cell-based
CONDITION_DETAILS: red cells of human, 1 h, 200 μg/mL
Where a SMILES comes first, the peptide text is derived from it. Bridges are numbered along the chain shown (N, C = ends). [ ]: non-standard residue; d: D form. Hyp = O=C(O)[C@@H]1C[C@@H](O)CN1; Pen = CC(C)(S)[C@H](N)C(=O)O; dDab = NCC[C@@H](N)C(=O)O; Dab = NCC[C@H](N)C(=O)O
OUTCOME_MEASURE: Hemolysis at 0.2 g/L

Query string: Given the entry CC[C@H](C)[C@H](NC(=O)[C@@H]1C[C@@H](O)CN1C(=O)[C@@H](N)C(C)C)C(=O)N[C@@H]1C(=O)N[C@@H](Cc2ccc(O)cc2)C(=O)N[C@@H](CO)C(=O)N[C@@H](CC(N)=O)C(=O)N[C@@H](CCCNC(=N)N)C(=O)N[C@@H](CO)C(=O)N[C@@H]([C@@H](C)O)C(=O)N[C@H](CCN)C(=O)N[C@@H](CCCCN)C(=O)N[C@@H](CCN)C(=O)N[C@@H](CCN)C(=O)N[C@H](C(=O)N[C@@H](Cc2ccc(O)cc2)C(=O)O)CSSC1(C)C [Example 29] (H-V[Hyp]I[Pen]YSNRST[dDab]K[Dab][Dab]CY-OH; disulfide 4-15) , report its measured Hemolysis at 0.2 g/L.
Result string: <1%

Query string: Quick one: Hemolysis at 0.2 g/L for CC[C@H](C)[C@H](NC(=O)[C@@H]1C[C@@H](O)CN1C(=O)[C@@H](N)C(C)C)C(=O)N[C@H]1CCC(=O)NCC[C@@H](C(=O)N[C@@H](Cc2ccc(O)cc2)C(=O)O)NC(=O)[C@H](CCN)NC(=O)[C@H](CCN)NC(=O)[C@H](CCCCN)NC(=O)[C@@H](CCN)NC(=O)[C@H]([C@@H](C)O)NC(=O)[C@H](CCN)NC(=O)[C@H](CCCNC(=N)N)NC(=O)[C@H](CC(N)=O)NC(=O)[C@H](CO)NC(=O)[C@H](Cc2ccc(O)cc2)NC1=O [Example 79] (H-V[Hyp]IEYSNR[Dab]T[dDab]K[Dab][Dab][Dab]Y-OH; lactam 4-15) ?
Result string: <1%
